Biological target: soluble guanylate cyclase (sGC) (Homo sapiens (Human), UniProt Q02108+Q02153)
Sequence (Q02153 whole entry): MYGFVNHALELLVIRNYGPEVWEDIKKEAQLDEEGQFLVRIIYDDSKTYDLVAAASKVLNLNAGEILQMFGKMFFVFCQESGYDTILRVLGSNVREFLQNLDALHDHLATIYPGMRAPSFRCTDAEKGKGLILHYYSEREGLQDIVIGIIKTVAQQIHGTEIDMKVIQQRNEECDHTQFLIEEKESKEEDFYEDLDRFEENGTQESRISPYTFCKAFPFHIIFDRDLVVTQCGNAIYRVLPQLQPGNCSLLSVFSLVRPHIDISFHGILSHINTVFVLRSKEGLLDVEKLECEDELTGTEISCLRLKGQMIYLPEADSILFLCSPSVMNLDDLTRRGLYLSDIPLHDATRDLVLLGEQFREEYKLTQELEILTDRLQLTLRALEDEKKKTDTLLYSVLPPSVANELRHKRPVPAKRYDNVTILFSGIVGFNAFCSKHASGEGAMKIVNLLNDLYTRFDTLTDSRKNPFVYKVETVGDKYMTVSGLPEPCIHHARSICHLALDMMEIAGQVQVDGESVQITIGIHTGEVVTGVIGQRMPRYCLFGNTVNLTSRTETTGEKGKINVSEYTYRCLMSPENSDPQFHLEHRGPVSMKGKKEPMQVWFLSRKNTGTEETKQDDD
Sequence (Q02108 whole entry): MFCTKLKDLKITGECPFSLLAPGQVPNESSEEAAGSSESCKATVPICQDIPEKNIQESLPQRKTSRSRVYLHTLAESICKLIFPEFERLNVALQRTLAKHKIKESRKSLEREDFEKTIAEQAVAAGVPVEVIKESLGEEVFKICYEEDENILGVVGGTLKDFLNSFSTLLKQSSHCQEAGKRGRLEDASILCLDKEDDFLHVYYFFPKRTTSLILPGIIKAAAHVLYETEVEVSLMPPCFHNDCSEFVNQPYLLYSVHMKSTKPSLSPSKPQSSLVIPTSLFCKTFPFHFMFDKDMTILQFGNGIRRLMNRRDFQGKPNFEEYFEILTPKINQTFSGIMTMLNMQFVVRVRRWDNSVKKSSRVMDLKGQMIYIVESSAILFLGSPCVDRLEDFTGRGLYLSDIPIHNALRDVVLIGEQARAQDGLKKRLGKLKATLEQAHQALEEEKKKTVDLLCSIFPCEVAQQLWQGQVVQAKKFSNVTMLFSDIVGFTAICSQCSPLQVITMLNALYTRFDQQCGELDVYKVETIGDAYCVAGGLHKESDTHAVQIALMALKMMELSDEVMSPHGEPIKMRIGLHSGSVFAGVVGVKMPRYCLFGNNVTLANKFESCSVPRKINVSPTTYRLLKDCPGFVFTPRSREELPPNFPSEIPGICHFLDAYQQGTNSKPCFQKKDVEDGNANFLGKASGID
Assay: sGC-HEK-cGMP assay run with SNP incubation (HEK WC assay)
Assay type: cell-based
Settings: in the presence of 10 uM SNP
Reported EC50 by item:

Consider the reported EC50 for these compounds:
| structure smiles string | outcome measure | reported result |
| --- | --- | --- |
| Nc1nc(-c2cc(-c3ccon3)n(Cc3ccccc3F)n2)ncc1NC(=O)C1CC1 | EC50 | < 20 µM |
| Fc1ccccc1Cn1nc(-c2nc(Cl)cc(-c3cccnc3)n2)cc1-c1ccon1 | EC50 | < 20 µM |

Now look at this one.
Please provide the recorded EC50 for [2H]C([2H])([2H])C(=O)Nc1cnc(-c2cc(-c3ccon3)n(Cc3ccccc3F)n2)nc1N , tested on soluble guanylate cyclase (sGC) (Homo sapiens (Human), UniProt Q02108+Q02153). < 20 µM

====

Reported Emax by item:
Target: soluble guanylate cyclase (sGC) (Homo sapiens (Human), UniProt Q02108+Q02153)
Assay: sGC-HEK-cGMP assay run with SNP incubation (HEK WC assay)
Format: cell-based
Details: read-out: HEK WC Assay (% Emax at 30 μM with 10 uM SNP)

Consider the reported Emax for these compounds:
| compound | Emax |
| --- | --- |
| Fc1ccccc1Cn1nc(-c2nc(Cl)cc(-c3cccnc3)n2)cc1-c1ccon1 [Compound I-301] | 60 to 80% |
| CC1(C(=O)Nc2cnc(-c3cc(-c4ccon4)n(Cc4ccccc4F)n3)nc2N)CCCCC1 [Compound I-231] | 80 to 100% |
| COC(=O)Nc1cnc(-c2cc(-c3ccon3)n(Cc3ccccc3F)n2)nc1N [Compound I-142] | 100 to 120% |

Now look at this one.
Which Emax is listed for Cc1cc(O)nc(-c2cc(-c3ccon3)n(Cc3ccccc3F)n2)n1 [Compound I-298] ? 20 to 40%

====

Reported pEC50 by item:
Biological target: soluble guanylate cyclase (sGC) (Homo sapiens (Human), UniProt Q02108+Q02153)
Test: sGC-HEK-cGMP assay run with SNP incubation (HEK WC assay)
Format: cell-based
Conditions: read-out: HEK WC Assay in the presence of 10 uM SNP EC50; in the presence of 10 uM SNP
pEC50: −log10 of the molar value.

Consider the reported pEC50 for these compounds:
| structure smiles string | pEC50 |
| --- | --- |
| C=CCOC1(c2cnc(-c3cc(-c4ccon4)n(Cc4ccccc4F)n3)nc2N)CC1 | 4.00 to 4.22 |
| COc1ccc(C2=Nc3nc(-c4cc(-c5ccon5)n(Cc5ccccc5F)n4)ncc3C(C)(C)O2)cc1 | 4.22 to 4.40 |
| Nc1nc(-c2cc(-c3ccon3)n(Cc3ccccc3F)n2)ncc1NC(=O)c1ccccc1 | > 4.70 |
| Nc1nc(-c2cc(-c3ccon3)n(Cc3ccccc3F)n2)ncc1C1(O)CC1 | > 4.70 |

Which pEC50 is listed for Nc1nc(-c2cc(-c3ccon3)n(Cc3ccccc3F)n2)ncc1NC(=O)OCc1ccccc1 ? > 4.70

====

Reported Emax by item:
Target: soluble guanylate cyclase (sGC) (Homo sapiens (Human), UniProt Q02108+Q02153)
Experiment: sGC-HEK-cGMP assay run with SNP incubation (HEK WC assay)
Format: cell-based
Conditions: read-out: HEK WC Assay (% Emax at 10 μM with 10 uM SNP)

Consider the reported Emax for these compounds:
| structure smiles string | reported result |
| --- | --- |
| COc1ccc(C2=Nc3nc(-c4cc(-c5ccon5)n(Cc5ccccc5F)n4)ncc3C(C)(C)O2)cc1 | 40 to 60% |
| Nc1nc(-c2cc(-c3ccon3)n(Cc3ccccc3F)n2)ncc1NC(=O)C1(C(F)(F)F)CC1 | 100 to 120% |
| Nc1nc(-c2cc(-c3ncco3)n(Cc3ccccc3F)n2)ncc1N=C(c1ccccc1)c1ccccc1 | 0 to 10% |

Now look at this one.
Which Emax is listed for Nc1nc(-c2cc(-c3ccon3)n(Cc3ccccc3F)n2)ncc1NC(=O)c1ccccc1Cl ? 80 to 100%

====

Target: soluble guanylate cyclase (sGC) (Homo sapiens (Human), UniProt Q02108+Q02153)
Test: sGC-HEK-cGMP assay run with SNP incubation (HEK WC assay)
Format: cell-based
Settings: read-out: HEK WC Assay (% Emax at 1 μM with 10 uM SNP)
outcome measure: Emax

| compound | Emax |
| --- | --- |
| Nc1nc(-c2cc(-c3ccon3)n(Cc3ccccc3F)n2)ncc1N1Cc2ccccc2C1=O | 20 to 40% |
| Oc1nc(-c2cc(-c3ccon3)n(Cc3ccccc3F)n2)ncc1Br | 20 to 40% |
| Nc1nc(-c2cc(-c3ccon3)n(Cc3ccccc3F)n2)ncc1NC(=O)c1cccnc1 | 40 to 60% |
| Oc1nc(-c2cc(-c3ccon3)n(Cc3ccccc3F)n2)ncc1C(F)(F)F | 20 to 40% |
| CC(C)(C)[S+]([O-])Nc1cnc(-c2cc(-c3ccon3)n(Cc3ccccc3F)n2)nc1N[S+]([O-])C(C)(C)C (centres unmarked) | 0 to 10% |
| Oc1ccccc1Cn1nc(-c2ncccn2)cc1-c1ccon1 | 0 to 10% |
| CC(C)(CO)C(=O)Nc1cnc(-c2cc(-c3ccon3)n(Cc3ccccc3F)n2)nc1N | 40 to 60% |

Now look at this one.
Which Emax is listed for COCC(=O)Nc1cnc(-c2cc(-c3ccon3)n(Cc3ccccc3F)n2)nc1N ? 40 to 60%

====

Target: Human soluble guanylate cyclase enzyme (hsGC) (Homo sapiens (Human), UniProt Q02108+Q02153)
Assay: Purified human sGC enzyme activity assay
Assay type: biochemical
Conditions: 10 μM compound
outcome measure: sGC Enzyme (specific activity at 10 μM)

Consider the reported sGC Enzyme (specific activity at 10 μM) for these compounds:
| structure smiles string | sGC Enzyme (specific activity at 10 μM) |
| --- | --- |
| Fc1ccccc1Cn1nc(-c2ccccn2)cc1-c1csc2ccccc12 | C (C = 100 to <200) |
| COc1cccc(-c2cc(-c3ncccn3)n(Cc3ccccc3F)n2)n1 | C (C = 100 to <200) |
| Fc1ccccc1Cn1nc(-c2ccccn2)cc1C1CCC1 | D (D = 200 to <500) |
| Fc1ccccc1Cn1nc(-c2ccccn2)cc1-c1cccnc1 | C (C = 100 to <200) |
| COc1cccc(-c2cc(-c3ncccn3)nn2Cc2ccccc2F)n1 | D (D = 200 to <500) |

Now look at this one.
Which sGC Enzyme (specific activity at 10 μM) is listed for Fc1ccccc1Cn1nc(-c2ccccn2)cc1-c1nccs1 ? C (C = 100 to <200)

====

Target: Human soluble guanylate cyclase enzyme (hsGC) (Homo sapiens (Human), UniProt Q02108+Q02153)
Assay: Purified human sGC enzyme activity assay
Type: biochemical
Settings: 10 μM compound
outcome measure: sGC Enzyme (specific activity at 10 μM)

Consider the reported sGC Enzyme (specific activity at 10 μM) for these compounds:
| compound | sGC Enzyme (specific activity at 10 μM) |
| --- | --- |
| Fc1ccccc1Cn1nc(-c2ccccn2)c(Cl)c1-c1ccccn1 [Compound I-63] | B (B = 50 to <100) |
| Fc1ccccc1Cn1nc(-c2ccccn2)c(Br)c1-c1ccccn1 [Compound I-62] | B (B = 50 to <100) |
| Cc1ccc(-c2cc(-c3ncccn3)nn2Cc2ccccc2F)cc1 [Compound I-65] | B (B = 50 to <100) |
| Fc1ccccc1Cn1nc(-c2ccccn2)cc1C1CCCCC1 [Compound I-48] | D (D = 200 to <500) |

Which sGC Enzyme (specific activity at 10 μM) is listed for Fc1ccccc1Cn1nc(-c2ccccn2)cc1-c1cccs1 [Compound I-35] ? D (D = 200 to <500)

Which sGC Enzyme (specific activity at 10 μM) is listed for CS(=O)(=O)c1ccc(-c2cc(-c3ccccn3)n(Cc3ccccc3F)n2)nc1 [Compound I-50] ? B (B = 50 to <100)

Which sGC Enzyme (specific activity at 10 μM) is listed for Cc1ccc(-c2c(Br)c(-c3ncccn3)nn2Cc2ccccc2F)cc1 [Compound I-58] ? B (B = 50 to <100)

Which sGC Enzyme (specific activity at 10 μM) is listed for Fc1ccccc1Cn1nc(-c2ccccn2)cc1-c1ccccc1F [Compound I-7] ? D (D = 200 to <500)

Which sGC Enzyme (specific activity at 10 μM) is listed for Cc1cc(-c2cc(-c3ncccn3)nn2Cc2ccccc2F)c(C)s1 [Compound I-14] ? C (C = 100 to <200)

Which sGC Enzyme (specific activity at 10 μM) is listed for Cc1ccccc1-c1cc(-c2ccccn2)nn1Cc1ccccc1F [Compound I-24] ? C (C = 100 to <200)

Which sGC Enzyme (specific activity at 10 μM) is listed for Fc1ccccc1Cn1nc(-c2ncccn2)cc1-c1nccs1 [Compound I-33] ? C (C = 100 to <200)

Which sGC Enzyme (specific activity at 10 μM) is listed for Cc1ccc(-c2cc(-c3ccccn3)nn2Cc2ccccc2F)cc1 [Compound I-23] ? C (C = 100 to <200)

Which sGC Enzyme (specific activity at 10 μM) is listed for Fc1ccc(-c2cc(-c3ccccn3)nn2Cc2ccccc2F)cc1 [Compound I-12] ? C (C = 100 to <200)

Which sGC Enzyme (specific activity at 10 μM) is listed for Cc1cccc(-c2cc(-c3ccccn3)nn2Cc2ccccc2F)c1 [Compound I-22] ? C (C = 100 to <200)

Which sGC Enzyme (specific activity at 10 μM) is listed for Fc1ccccc1Cn1nc(-c2ccccn2)cc1-c1nnn[nH]1 [Compound I-43] ? C (C = 100 to <200)

Which sGC Enzyme (specific activity at 10 μM) is listed for Nc1ccnc(-c2cc(-c3ccsc3)n(Cc3ccccc3F)n2)n1 [Compound I-49] ? D (D = 200 to <500)

Which sGC Enzyme (specific activity at 10 μM) is listed for COc1ccc(-c2cc(-c3ncccn3)nn2Cc2ccccc2F)cc1 [Compound I-60] ? B (B = 50 to <100)

Which sGC Enzyme (specific activity at 10 μM) is listed for CC(C)c1cc(-c2ccccn2)nn1Cc1ccccc1F [Compound I-47] ? D (D = 200 to <500)

Which sGC Enzyme (specific activity at 10 μM) is listed for Fc1ccccc1Cn1nc(-c2ncccn2)cc1-c1cccnc1 [Compound I-10] ? D (D = 200 to <500)

Which sGC Enzyme (specific activity at 10 μM) is listed for Fc1ccccc1Cn1nc(-c2ccccn2)cc1-c1ccco1 [Compound I-61] ? C (C = 100 to <200)

Which sGC Enzyme (specific activity at 10 μM) is listed for Fc1ccccc1Cn1nc(-c2ncccn2)cc1-c1cccs1 [Compound I-66] ? B (B = 50 to <100)

Which sGC Enzyme (specific activity at 10 μM) is listed for Nc1ccnc(-c2cc(-c3ccccn3)n(Cc3ccccc3F)n2)n1 [Compound I-31] ? C (C = 100 to <200)

Which sGC Enzyme (specific activity at 10 μM) is listed for COc1ccccc1-c1cc(-c2ccccn2)nn1Cc1ccccc1F [Compound I-36] ? C (C = 100 to <200)
